Molecular target: UniProt:P31424
Assay: mGluR5 calcium flux assay in HEK 293A cells, negative allosteric modulation of glutamate EC80 response
Details: HEK cells transfected with rat mGluR5; glutamate EC80; ± is standard error of at least three experiments
Procedure: HEK 293A cells stably expressing either rat or human mGluR5 were plated in black-walled, clear-bottomed, poly-D-lysine coated 384-well plates in 20 μL of assay medium (DMEM containing 10% dialyzed FBS, 20 mM HEPES, 100 units/mL penicillin/streptomycin plus 250 ng/mL Fungizone, and 1 mM sodium pyruvate) at a density of 20K cells/well. The cells were grown overnight at 37° C. in the presence of 5% CO2. […] Ca^2+ flux was measured using the Functional Drug Screening System (FDSS7000, Hamamatsu, Japan). […]
pIC50: −log10 of the molar value.
RESULT TYPE: pIC50

Answered cases to consult:
MOLECULE	pIC50
Cc1cc(OCC2CCCO2)cc(C(=O)Nc2nc(C)cs2)n1 (stereo not shown)	6.56
Cc1cc(O[C@H]2CO[C@H](C)C2)cc(C(=O)Nc2nc(C(F)F)cs2)n1	6.04
Cc1cc(OC2CN(C(=O)CC(C)C)C2)cc(C(=O)Nc2ccc(F)cn2)n1	5.36
Cc1cc(OC2COC2)cc(C(=O)Nc2ccc(F)cn2)n1	6.67
Cc1cc(OC[C@H]2CCOC2)cc(C(=O)Nc2ccc(F)cn2)n1	5.31

1. Cc1cc(O[C@@H]2CCOC2)cc(C(=O)Nc2nc(CF)cs2)n1
2. CO[C@H](C)COc1cc(C)nc(C(=O)Nc2ccccn2)c1
Pick one: 1 or 2 . Which one has the lower reported pIC50? I would appreciate it if you answered with the label of your choice.
2

1. Cc1cc(OC[C@H]2CCOC2)cc(C(=O)Nc2nc(C)cs2)n1
2. Cc1cc(OC2CCCC2)cc(C(=O)Nc2ccc(F)cn2)n1
3. COC[C@H](C)Oc1cc(C)nc(C(=O)Nc2ccc(F)cn2)c1
Exam item: list the entries in increasing order of pIC50. Give your ranking as a list of the labels in the requested order.
3, 2, 1
(3: 5.12, 2: 5.44, 1: 6.44)

====

Target: rat mGluR5 (Rattus norvegicus)
Construct: expressed in transfected cells
Experiment: mGluR5 calcium flux assay in HEK 293A cells, negative allosteric modulation of glutamate EC80 response
Format: cell-based
Settings: HEK cells transfected with rat mGluR5; glutamate EC80; ± is standard error of at least three experiments
pIC50: −log10 of the molar value.
RESULT TYPE: pIC50

SMI	pIC50
Cc1cc(OCC2COC2)cc(C(=O)Nc2nc(C)cs2)n1	6.84

P. Cc1cc(OCC2COC2)cc(C(=O)Nc2ccccn2)n1
Q. Cc1cc(OC2CCCC2)cc(C(=O)Nc2ccccn2)n1
R. Cc1cc(OC2CCC2)cc(C(=O)Nc2ccccn2)n1
Sort the 3 molecules by pIC50; largest first, smallest last. Reply: labels, ordered per the request.
R, Q, P

====

Biological target: rat mGluR5 (Rattus norvegicus, UniProt P31424)
Sequence (P31424 21-1203): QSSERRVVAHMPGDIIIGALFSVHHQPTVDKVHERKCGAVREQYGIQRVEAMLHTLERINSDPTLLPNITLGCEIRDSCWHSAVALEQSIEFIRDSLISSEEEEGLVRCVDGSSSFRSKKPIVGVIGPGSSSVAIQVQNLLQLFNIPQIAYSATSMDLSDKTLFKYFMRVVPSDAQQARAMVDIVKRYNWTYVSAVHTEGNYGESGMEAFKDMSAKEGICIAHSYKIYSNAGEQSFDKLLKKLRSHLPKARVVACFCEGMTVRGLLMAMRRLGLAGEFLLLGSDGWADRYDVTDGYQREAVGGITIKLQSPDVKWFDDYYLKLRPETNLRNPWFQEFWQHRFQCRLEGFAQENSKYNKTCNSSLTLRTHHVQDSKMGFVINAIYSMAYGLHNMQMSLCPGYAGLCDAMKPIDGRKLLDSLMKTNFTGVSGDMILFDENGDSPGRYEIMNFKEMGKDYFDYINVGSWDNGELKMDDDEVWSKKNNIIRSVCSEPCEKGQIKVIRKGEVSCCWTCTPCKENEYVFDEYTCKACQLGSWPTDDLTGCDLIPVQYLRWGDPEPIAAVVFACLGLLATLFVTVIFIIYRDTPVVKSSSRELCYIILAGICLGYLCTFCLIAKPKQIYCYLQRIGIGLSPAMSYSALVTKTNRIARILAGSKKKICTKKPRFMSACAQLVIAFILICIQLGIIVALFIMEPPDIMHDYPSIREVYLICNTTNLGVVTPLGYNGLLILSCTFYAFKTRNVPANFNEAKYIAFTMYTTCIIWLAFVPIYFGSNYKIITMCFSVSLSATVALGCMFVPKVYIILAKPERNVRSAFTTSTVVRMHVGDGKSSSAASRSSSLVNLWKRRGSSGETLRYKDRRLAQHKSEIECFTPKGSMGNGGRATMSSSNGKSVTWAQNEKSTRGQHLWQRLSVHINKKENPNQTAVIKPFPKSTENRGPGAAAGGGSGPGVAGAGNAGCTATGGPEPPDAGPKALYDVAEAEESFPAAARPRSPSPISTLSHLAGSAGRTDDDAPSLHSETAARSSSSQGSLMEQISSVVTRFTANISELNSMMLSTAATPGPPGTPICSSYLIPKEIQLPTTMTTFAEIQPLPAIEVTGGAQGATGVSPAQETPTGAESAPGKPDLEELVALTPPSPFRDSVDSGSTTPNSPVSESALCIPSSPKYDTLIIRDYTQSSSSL
Assay: mGluR5 calcium flux assay in HEK 293A cells, negative allosteric modulation of glutamate EC80 response
Conditions: HEK cells transfected with rat mGluR5; glutamate EC80; ± is standard error of at least three experiments
RESULT TYPE: IC50 (nM)

COMPOUND	UNITS SYMBOL	IC50
CO[C@@H](C)COc1cc(C)nc(C(=O)Nc2ccccn2)c1	nM	2210
Cc1cc(OCC2CCO2)cc(C(=O)Nc2ccc(F)cn2)n1 (stereo not drawn)	nM	2480
